# System: HEK293T (UBE3A T485A transfected, BAR Wnt reporter)
# assay-text: Renilla luciferase signal (cell health) relative to plate median (fold (linear ratio)); higher = higher Renilla signal
# experimental-conditions: concentration: 0.01 uM; 24 h
Whole data set: some 1,100 compounds, median “Renilla luciferase signal (cell health) relative to plate median” near 0.97, cut for the highest 2% near 1.6. The list comes from a sample in which the highest values are over-represented; it also holds close analogues and randomly drawn compounds.
Here the recorded Renilla luciferase signal is given for each entry.
property-measured: Renilla luciferase signal

| molecule | property-measured | test-result |
| --- | --- | --- |
| CNC(CC(=O)O)C(=O)O (stereo not drawn) | Renilla luciferase signal | 1.02 |
| CCCCOC(=O)C(C)Oc1ccc(Oc2ccc(C(F)(F)F)cn2)cc1 (stereo not drawn) [Fluazifop-butyl] | Renilla luciferase signal | 1.02 |
| CSC(=O)c1cccc2nnsc12 [Acibenzolar-S-methyl] | Renilla luciferase signal | 0.985 |

Data provenance is the supplement of paper PMC9254222.
